target: Urotensin-2 receptor (Rattus norvegicus, UniProt P49684)
Sequence (P49684 whole entry): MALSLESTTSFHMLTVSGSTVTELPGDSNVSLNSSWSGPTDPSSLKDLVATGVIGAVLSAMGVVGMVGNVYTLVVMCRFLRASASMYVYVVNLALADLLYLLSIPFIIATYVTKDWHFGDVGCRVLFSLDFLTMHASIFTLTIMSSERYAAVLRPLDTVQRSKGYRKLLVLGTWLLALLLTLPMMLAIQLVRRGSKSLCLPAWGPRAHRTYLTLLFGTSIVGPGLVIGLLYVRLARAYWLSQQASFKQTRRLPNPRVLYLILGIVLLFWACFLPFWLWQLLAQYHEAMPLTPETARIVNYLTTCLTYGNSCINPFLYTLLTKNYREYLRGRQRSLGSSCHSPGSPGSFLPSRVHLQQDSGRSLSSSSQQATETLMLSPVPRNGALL
experimental_endpoint: Ki (nM)
Lab book: enter the figure in nM, no units written.

# get_value(readout= Ki, system= Urotensin-2 receptor (Rattus norvegicus, UniProt P49684)) for Cc1cc(NC(=O)NCCN2CCC(O)(Cc3ccccc3)CC2)c2ccccc2n1 [ACT-058362]
1470

meta.source: BindingDB's records for doi:10.1124/jpet.104.068320
